- assay.protocol: NCI Yeast Anticancer Drug Screen. Data for the cln2 rad14 strain (AID 165)
- experimental.context: S. cerevisiae cln2 rad14 strain, at 50.0 µM
Compounds without any hit were thinned out: in the full panel of roughly 79,000, 15% have a hit. Calls of active or inactive are those of the source. No stated cut-off is given here; in the data, active means growth inhibition above about 70%; inactive means the rest.
Reply using exactly one outcome from active, inactive

// param item: O=C(CC(O)(C(F)(F)F)C(F)(F)Cl)CC(O)(C(F)(F)F)C(F)(F)Cl (centres undefined) ; yields the recorded call
active

// param item: O=C1C2C3CCC(O3)C2C(=O)N1c1cccc2ccccc12 (centres undefined) ; yields the recorded call
inactive

// param item: N=c1c2ccccc2cc2c3ccccc3ccn12 ; yields the recorded call
active

// param item: N#CC(C(=O)C(=O)NC1C2CC3CC(C2)CC1C3)c1c(Cl)cccc1Cl (centres undefined) ; yields the recorded call
inactive

// param item: O=C(NCc1ccccc1)N1CCN(c2ccccc2)C1=O ; yields the recorded call
inactive

// param item: O=C(O)c1ccc(C(=O)c2ccccc2C(=O)O)cc1 ; yields the recorded call
active

// param item: COc1cc2c(cc1OC(C)=O)C(=O)C(Br)(Br)CCC2 ; yields the recorded call
active

// param item: COc1cc(/C=C2/C(=O)N(C(=O)c3ccccc3O)N=C2C)cc(OC)c1OC ; yields the recorded call
inactive

// param item: FC(F)(F)c1ccc(NC(=S)SCc2ccc(Cl)cc2)cc1 ; yields the recorded call
active

// param item: CCN(CC)CCC(=O)/C=C/c1ccc(C)cc1 ; yields the recorded call
inactive

// param item: Nn1c2ccccc2c2ccccc21 ; yields the recorded call
inactive

// param item: Cc1c2cnccc2c(C)c2c1c1ccccc1n2CCCCCCNCc1ccccc1 ; yields the recorded call
active

// param item: O=[N+]([O-])c1cc2[nH]cnc2c([N+](=O)[O-])c1NCc1ccccc1 ; yields the recorded call
inactive

// param item: CC1=C(C(=O)Nc2cccc(Cl)c2)C(c2ccccc2F)C(C(=O)Nc2cccc(Cl)c2)=C(C)N1 ; yields the recorded call
active

// param item: CCCCCCCCCCCCCCC[N+]1(CC)CCCCC1 ; yields the recorded call
active

// param item: CCN(CC)CCCNc1cccc2ccc(OC)nc12 ; yields the recorded call
inactive

// param item: CCC(=O)NC1=CCC(C(C)(C)C)CC1 (centres undefined) ; yields the recorded call
inactive

// param item: CCN(c1ccc(C=O)cc1)c1ccc([N+](=O)[O-])cc1[N+](=O)[O-] ; yields the recorded call
inactive

// param item: CC(C)(C)/C=N/NS(=O)(=O)c1ccccc1 ; yields the recorded call
inactive

// param item: N#CC(Nc1cccc(C(F)(F)F)c1)c1ccccc1C(F)(F)F (centres undefined) ; yields the recorded call
active

// param item: Oc1cc(Br)cc2cccnc12 ; yields the recorded call
active

// param item: CCN(CC)CCNc1ccc(OC)c2cccnc12 ; yields the recorded call
active

// param item: O=C1c2ccc3ccccc3c2CCC1[n+]1ccc2ccccc2c1 (centres undefined) ; yields the recorded call
active

// param item: COc1ccc(C(=O)c2cc(Br)ccc2O)cc1 ; yields the recorded call
inactive
